assay: Cytotoxicity against human U937 cells assessed as cell viability after 72 hrs by MTT assay; assay type: cell-based, U-937; conditions: U937 cells, read-out: LC50

| structure.as.smiles | value.units | CC50 at 72 h |
| --- | --- | --- |
| O=C(N/N=C/c1ccc(O)cc1O)c1nccc2ccccc12 | µM | 28.6 |
| C[C@@H]1[C@H](O)[C@@H](C)/C=C/C=C/C=C/C=C/C=C/C=C/C=C/[C@H](O[C@@H]2O[C@H](C)[C@@H](O)[C@H](N)[C@@H]2O)C[C@@H]2O[C@](O)(C[C@@H](O)C[C@@H](O)[C@H](O)CC[C@@H](O)C[C@@H](O)CC(=O)O[C@H]1C)C[C@H](O)[C@H]2C(=O)O | µM | 45.6 |
| O=C(N/N=C/c1ccc(O)c(O)c1O)c1ccnc2ccccc12 | µM | 347 |

----------
test: Selectivity index, ratio of LC50 for human U937 cells to EC50 for intracellular amastigotes of Leishmania (Viannia) panamensis MHOM/CO/87/UA140pIR-GFP; assay type: toxicity, cell-based, U-937
yes means recorded selectivity ratio is 4 or above; no means it is below 4.

| structure.as.smiles | group |
| --- | --- |
| O=C(N/N=C/c1cc(O)ccc1O)c1ccc2ccccc2n1 | no |
| C[C@@H]1[C@H](O)[C@@H](C)/C=C/C=C/C=C/C=C/C=C/C=C/C=C/[C@H](O[C@@H]2O[C@H](C)[C@@H](O)[C@H](N)[C@@H]2O)C[C@@H]2O[C@](O)(C[C@@H](O)C[C@@H](O)[C@H](O)CC[C@@H](O)C[C@@H](O)CC(=O)O[C@H]1C)C[C@H](O)[C@H]2C(=O)O | yes |
| O=C(N/N=C/c1ccc(O)c(O)c1O)c1ccc2ccccc2n1 | yes |
| O=C(N/N=C/c1ccc(O)cc1O)c1nccc2ccccc12 | no |
| O=C(N/N=C/c1cccc(O)c1O)c1ccc2ccccc2n1 | yes |
| O=C(N/N=C/c1ccc(O)cc1O)c1ccc2ccccc2n1 | yes |

----------
tested on: U-937; assay: Cytotoxicity against human U937 cells assessed as cell viability after 72 hrs by MTT assay; format: cell-based; settings: u-937, 72 h, read-out: LC50 (the source's name)

| biopolymer.sequence | value.units | CC50 |
| --- | --- | --- |
| MEGLUMINE ANTIMONATE | µM | 6 |

----------
test system: Leishmania panamensis; assay: Leishmanicidal activity against intracellular amastigotes of Leishmania (Viannia) panamensis MHOM/CO/87/UA140pIR-GFP infected in human U937 cells assessed as decrease of intracellular parasite load at 20 ug/ml after 72 hrs; type: functional; settings: U-937, 72 h
inhibition at 20 µg/mL by entry:

| structure.as.smiles | inhibition at 20 µg/mL |
| --- | --- |
| O=C(N/N=C/c1cc(O)ccc1O)c1ccnc2ccccc12 | 26.1% |
| O=C(N/N=C/c1ccc(O)c(O)c1O)c1ccc2ccccc2n1 | 68.2% |
| O=C(N/N=C/c1cccc(O)c1O)c1ccc2ccccc2n1 | 75.7% |
| O=C(N/N=C/c1ccc(O)c(O)c1O)c1ccnc2ccccc12 | 21.3% |
| O=C(N/N=C/c1cc(O)ccc1O)c1ccc2ccccc2n1 | 64% |
| O=C(N/N=C/c1ccccc1O)c1ccc2ccccc2n1 | 16.8% |
